meta.source: the supplement of paper PMC11451515

System: P12-Ichikawa
Assay: cell viability relative to DMSO control; higher = less cytotoxic
Conditions: HPLM + 10% dialyzed FBS; 48 h; 0.000781 µM
Quantity Kind: cell viability (%)
Only the number, expressed in %, is required.

# annotated cases, reported cell viability shown
{"columns": ["Compound", "cell viability, %"],
 "data": [
  ["Cc1cc(/C=c2/sc3nc4ccccc4n3c2=O)c(C)n1-c1ccccc1", 121],
  ["CC1=CC/2=C(C=C1C)N(C[C@@H](O)[C@@H](O)[C@@H](O)CO)C/3=N/C(=O)NC(=O)C3=N2", 118],
  ["COc1cccc(OC)c1-c1cc(C(=O)NC2(C(=O)O)C3CC4CC(C3)CC2C4)nn1-c1ccnc2cc(Cl)ccc12 (centres undefined)", 115],
  ["Nc1cc(N2CCCCC2)nc(N)[n+]1[O-]", 114],
  ["CC1(C)CCC(C)(C)c2cc(NC(=O)c3ccc(C(=O)O)cc3)ccc21", 73.7],
  ["CCn1c(C(=O)N(C2CC2)C2CC2)cc2c3c(ncn3C)c(Nc3cc(C)n(C)n3)nc21", 88.3],
  ["c1cc2c(cc1[C@H]1OC[C@H]3[C@@H]1CO[C@@H]3c1ccc3c(c1)OCO3)OCO2", 122],
  ["Cc1cnc(Nc2cccc(CN3CCOCC3)c2)nc1Nc1cccc([S+](=O)([O-])NC(C)(C)C)c1", 90]
]}

Form: compound = O=c1oc2cc(O)ccc2s1 ; cell viability = 114

Form: compound = O=C(O)c1cccnc1 ; cell viability = 107

Form: compound = O=C1c2ccccc2-c2n[nH]c3cccc1c23 ; cell viability = 96.5

Form: compound = Cc1noc(N[S+](=O)([O-])c2ccc(N)cc2)c1C ; cell viability = 99.4

Form: compound = CCCCCN(C)CCC(O)(P(=O)([O-])O)P(=O)(O)O ; cell viability = 88

Form: compound = O=C(NOCC1CC1)c1ccc(F)c(F)c1Nc1ccc(I)cc1Cl ; cell viability = 92.8

Form: compound = Nc1ncnc2nc(-c3ccc(N4CCOCC4)nc3)cc(-c3cccc(Br)c3)c12 ; cell viability = 116

Form: compound = CC(C)C[C@H](CC(=O)O)C(=O)N[C@@H](Cc1c[nH]c2ccccc12)C(=O)N[C@@H](C)c1ccccc1 ; cell viability = 95.1

Form: compound = CC(C)[C@]12O[C@H]1[C@@H]3O[C@@]34[C@@]5(C)CC\C6=C(COC6=O)/[C@@H]5C[C@@H]7O[C@]47[C@@H]2O ; cell viability = 97.5

Form: compound = N#Cc1cc(NC(=O)Nc2nnc(-c3ccncc3)s2)ccc1-c1cn[nH]c1 ; cell viability = 117

Form: compound = C/C1=C/C(=C(/CNC(=O)C2=CC(=CC3=C2C=N[N]3C4CCCC4)C5=CC=C(CN6CCOCC6)C=C5)C(=O)N1)C ; cell viability = 113

---

System: NOMO1
Assay: cell viability relative to DMSO control; higher = less cytotoxic
Details: RPMI 5 mM glucose + 10% FBS; 48 h; 5.12 µM
# reported cell viability; entries follow
Only the number, expressed in %, is required.

{"columns": ["Compound", "Result Units", "Observed Value"],
 "data": [
  ["C#CCC(Cc1cnc2nc(N)nc(N)c2n1)c1ccc(C(=O)N[C@@H](CCC(=O)O)C(=O)O)cc1 (stereo not given in full)", "%", 78.4]
]}

Form: compound = NC(=O)N1CCC(CC(=O)N2CCC([C@H]3c4ncc(Br)cc4CCc4cc(Cl)cc(Br)c43)CC2)CC1 ; cell viability = 86.2
